The measured values listed here are drawn from patent US7312213B2.

System: L1210 murine leukaemia
Test: In vitro cytotoxicity, L1210 murine leukaemia (Microculture Tetrazolium Assay)
Format: cell-based
Conditions: Mus musculus; L1210, 48 hours exposure (4 doubling periods); read-out: IC50, concentration of cytotoxic agent that inhibits the proliferation of the treated cells by 50%
Procedure: L1210 murine leukaemia was used in vitro. The cells are cultured in RPMI 1640 complete culture medium containing 10% foetal calf serum, 2 mM glutamine, 50 units/ml of penicillin, 50 μg/ml of streptomycin and 10 mM Hepes, pH=7.4. […] The number of viable cells is then quantified by a colorimetric assay, the Microculture Tetrazolium Assay (J. Carmichael et al., Cancer Res.; 47, 939-942 (1987)). […]
pIC50: −log10 of the molar value. Counter-ions that a name gives are not always drawn.

COMPOUND | SYSTEM_TESTED | pIC50
CN(C)CCn1c(=O)c2c3cc(O)ccc3c3[nH]c4ccccc4oc3c2c1=O [Example 2, hydrochloride] | L1210 murine leukaemia | 6.60
